Molecular target: C. elegans Slo-1a (Caenorhabditis elegans)
Sequence (Q95V25 whole entry): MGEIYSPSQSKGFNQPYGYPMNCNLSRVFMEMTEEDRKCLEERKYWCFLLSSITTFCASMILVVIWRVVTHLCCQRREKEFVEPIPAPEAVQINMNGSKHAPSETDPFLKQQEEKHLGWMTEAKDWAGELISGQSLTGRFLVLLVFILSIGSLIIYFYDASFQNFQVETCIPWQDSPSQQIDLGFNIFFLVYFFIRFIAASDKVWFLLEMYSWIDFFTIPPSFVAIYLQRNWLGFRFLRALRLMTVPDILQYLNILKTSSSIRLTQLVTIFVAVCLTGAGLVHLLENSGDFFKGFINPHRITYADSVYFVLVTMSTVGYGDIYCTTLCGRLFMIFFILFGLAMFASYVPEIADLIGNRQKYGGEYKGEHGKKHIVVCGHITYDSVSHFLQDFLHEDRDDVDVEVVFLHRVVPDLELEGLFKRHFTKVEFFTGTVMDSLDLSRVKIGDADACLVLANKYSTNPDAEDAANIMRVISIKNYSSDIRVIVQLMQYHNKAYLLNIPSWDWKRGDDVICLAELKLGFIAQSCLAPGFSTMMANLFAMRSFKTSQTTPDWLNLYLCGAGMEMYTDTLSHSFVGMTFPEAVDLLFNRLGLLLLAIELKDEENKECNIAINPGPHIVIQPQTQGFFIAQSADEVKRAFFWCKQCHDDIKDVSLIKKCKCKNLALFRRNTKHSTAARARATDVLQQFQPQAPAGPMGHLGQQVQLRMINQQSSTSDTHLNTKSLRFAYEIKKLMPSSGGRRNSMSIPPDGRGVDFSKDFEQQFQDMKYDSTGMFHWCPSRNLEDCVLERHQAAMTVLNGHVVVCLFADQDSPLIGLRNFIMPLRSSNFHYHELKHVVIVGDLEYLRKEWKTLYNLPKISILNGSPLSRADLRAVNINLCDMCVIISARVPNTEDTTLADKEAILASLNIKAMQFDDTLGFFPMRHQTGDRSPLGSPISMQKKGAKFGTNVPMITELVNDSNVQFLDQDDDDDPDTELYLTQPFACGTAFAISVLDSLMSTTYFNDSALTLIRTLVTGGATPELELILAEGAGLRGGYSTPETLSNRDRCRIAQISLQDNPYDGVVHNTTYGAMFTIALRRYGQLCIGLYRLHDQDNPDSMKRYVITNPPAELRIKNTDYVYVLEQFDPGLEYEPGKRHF
Settings: pE50 (negative decadic logarithm of EC50), CHO cells expressing C. elegans Slo-1a, voltage sensitive dye
measurement-name: EC50

[
  {
    "molecule": "O=C(N[C@H]1CCOc2ccccc21)c1cnc2c(-c3cc(Cl)cc(Cl)c3)cccc2c1CO [Example 592]",
    "tested-on": "C. elegans Slo-1a (Caenorhabditis elegans)",
    "measurement-name": "EC50",
    "meas-value": "316 to 5010 nM"
  },
  {
    "molecule": "O=C(N[C@H]1CCOc2ccccc21)c1cnc2c(-c3cccc(OC(F)(F)F)c3)cccc2c1N1CCOCC1 [Example 322]",
    "tested-on": "C. elegans Slo-1a (Caenorhabditis elegans)",
    "measurement-name": "EC50",
    "meas-value": "< 3.16 nM"
  },
  {
    "molecule": "O=C(N[C@H]1CCOc2ccccc21)c1cnc2c(-c3cc(Cl)cc(Cl)c3)cccc2c1N1CCC(F)(F)CC1 [Example 398]",
    "tested-on": "C. elegans Slo-1a (Caenorhabditis elegans)",
    "measurement-name": "EC50",
    "meas-value": "< 3.16 nM"
  },
  {
    "molecule": "O=C(N[C@H]1CCOc2ccccc21)c1cnc2c(-c3cccc(F)c3Cl)cccc2c1N1CCOCC1 [Example 238]",
    "tested-on": "C. elegans Slo-1a (Caenorhabditis elegans)",
    "measurement-name": "EC50",
    "meas-value": "< 3.16 nM"
  },
  {
    "molecule": "CCOC(=O)[C@@H]1CCCN1c1c(C(=O)N[C@H]2CCOc3ccccc32)cnc2c(-c3cc(Cl)cc(Cl)c3)cccc12 [Example 320]",
    "tested-on": "C. elegans Slo-1a (Caenorhabditis elegans)",
    "measurement-name": "EC50",
    "meas-value": "3.16 to 31.6 nM"
  },
  {
    "molecule": "CN(C)c1c(C(=O)N[C@H]2CCOc3ccccc32)cnc2c(-c3ccc(F)cc3Cl)c(F)ccc12 [Example 172]",
    "tested-on": "C. elegans Slo-1a (Caenorhabditis elegans)",
    "measurement-name": "EC50",
    "meas-value": "< 3.16 nM"
  },
  {
    "molecule": "CN(C)c1c(C(=O)NC2COCc3ccccc32)cnc2c(-c3cc(Cl)cc(Cl)c3)cccc12 (stereo not drawn) [Example 581]",
    "tested-on": "C. elegans Slo-1a (Caenorhabditis elegans)",
    "measurement-name": "EC50",
    "meas-value": "31.6 to 316 nM"
  },
  {
    "molecule": "Cc1ncc(-c2cccc3c(N(C)C)c(C(=O)N[C@H]4CCOc5ccccc54)cnc23)s1 [Example 456]",
    "tested-on": "C. elegans Slo-1a (Caenorhabditis elegans)",
    "measurement-name": "EC50",
    "meas-value": "31.6 to 316 nM"
  },
  {
    "molecule": "O=C(N[C@H]1CCOc2ccccc21)c1cnc2c(-c3cccc(Cl)c3F)cccc2c1N1CCOCC1 [Example 226]",
    "tested-on": "C. elegans Slo-1a (Caenorhabditis elegans)",
    "measurement-name": "EC50",
    "meas-value": "< 3.16 nM"
  },
  {
    "molecule": "CCc1c(C(=O)N[C@H]2CCOc3ccccc32)cnc2c(-c3cccc(OC(F)(F)F)c3)cccc12 [Example 570]",
    "tested-on": "C. elegans Slo-1a (Caenorhabditis elegans)",
    "measurement-name": "EC50",
    "meas-value": "3.16 to 31.6 nM"
  },
  {
    "molecule": "O=C(N[C@H]1CCOc2ccccc21)c1cnc2c(-c3cc(Cl)cc(Cl)c3)cccc2c1N1CCC[C@@H]1CO [Example 287]",
    "tested-on": "C. elegans Slo-1a (Caenorhabditis elegans)",
    "measurement-name": "EC50",
    "meas-value": "3.16 to 31.6 nM"
  },
  {
    "molecule": "CCc1cc(Cl)cc(-c2cccc3c(CC)c(C(=O)N[C@H]4CCOc5ccccc54)cnc23)c1 [Example 351]",
    "tested-on": "C. elegans Slo-1a (Caenorhabditis elegans)",
    "measurement-name": "EC50",
    "meas-value": "< 3.16 nM"
  },
  {
    "molecule": "O=C(NC1CCOc2ccccc21)c1cnc2c(-c3cc(Cl)cc(Cl)c3)cccc2c1N1CC2CCC(C1)O2 (stereo not drawn) [Example 302]",
    "tested-on": "C. elegans Slo-1a (Caenorhabditis elegans)",
    "measurement-name": "EC50",
    "meas-value": "< 3.16 nM"
  },
  {
    "molecule": "O=C(N[C@H]1CCOc2ccccc21)c1cnc2c(-c3cc(Cl)cc(Cl)c3)cccc2c1C1CCNC1 (mixture of isomers) [Example 519]",
    "tested-on": "C. elegans Slo-1a (Caenorhabditis elegans)",
    "measurement-name": "EC50",
    "meas-value": "31.6 to 316 nM"
  },
  {
    "molecule": "COCCNc1c(C(=O)N[C@H]2CCc3ccccc32)cnc2c(-c3cc(Cl)cc(Cl)c3)cccc12 [Example 298]",
    "tested-on": "C. elegans Slo-1a (Caenorhabditis elegans)",
    "measurement-name": "EC50",
    "meas-value": "< 3.16 nM"
  }
]
